Provenance of the data: paper PMC11062899

assayNotes: Metabolic stability in rat liver microsomes (RLMs)
experimentalSetup: rat, rat liver microsomes, pH 7.4, Half Life, individual replicates R1-R3
readoutLabel: half-life at 10 μM (min)
Report as a plain number; the unit min is understood.

Lookup: Bench note: what half-life at 10 μM did COc1ccc([C@@H]2Sc3ccccc3N(CCN(C)C)C(=O)[C@@H]2OC(C)=O)cc1 [Diltiazem, diltiazem, reference compound] show?
Found: 14.9

###

assayNotes: Passive artificial membrane permeability (PAMPA);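 further: top well sample relative to theoretical equilibrium sample by TIC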
experimentalSetup: PAMPA; average of R1-R3
API: label(entry) gives Y if the entry's Permeability% Average is strictly smaller than 2%; on equality or larger values it gives N.

Worked examples follow.
[[record]]
compound = "C[C@@H]1NC(=O)[C@@H](NC(=O)c2ccc(Cl)s2)CSCc2cccc(n2)CSCCNC(=O)c2ccc(cc2)CNC1=O [compound 26]"
classification = "N"

[[record]]
compound = "C[C@@H]1NC(=O)[C@@H](NC(=O)c2ccc(Cl)s2)CNC(=O)CCSCc2cccc(n2)CSCCNC1=O [compound 18]"
classification = "N"

[[record]]
compound = "O=C1NCCSCc2cccc(n2)CSCCC(=O)N2CCC[C@H]2C(=O)N2CCN(C(=O)c3ccc(Cl)s3)CC12 (stereo partly drawn) [compound 23]"
classification = "N"

[[record]]
compound = "O=C1CCSCc2ccc(cc2)CSCCNC(=O)[C@H](CNC(=O)c2ccc(Cl)s2)NC(=O)[C@H](Cc2ccccn2)N1 [compound 21]"
classification = "N"

[[record]]
compound = "NC(=O)NCCC[C@@H]1NC(=O)[C@@H](NC(=O)c2ccc(Cl)s2)CNC(=O)CCSCc2cccc(n2)CSCCNC1=O [compound 20]"
classification = "Y"


Lookup: Does O=C(N[C@H]1CSCc2cccc(n2)CSCCNC(=O)[C@H](Cc2c[nH]cn2)NC(=O)C2(CCCC2)NC1=O)c1ccc(Cl)s1 [compound 29] have Permeability% Average strictly under 2%?
Found: Y

Lookup: Just wondering, is Permeability% Average of O=C1C[C@H]2CCCN2C(=O)[C@H](Cc2ccccc2)NC(=O)[C@@H](NC(=O)c2ccc(Cl)s2)CSCCS(=O)(=O)CCSCCN1 [peptide 11] below 2%?
Found: Y

Lookup: Regarding CC(C)[C@@H]1NC(=O)[C@@H](NC(=O)c2ccc(Cl)s2)CNC(=O)CCSCc2cccc(n2)CSCCNC1=O [compound 19] , kindly confirm whether its Permeability% Average is beneath 2%.
Found: N

Lookup: Regarding O=C1C[C@H]2CCCN2C(=O)[C@H](Cc2ccccn2)NC(=O)[C@@H](NC(=O)c2ccc(Cl)s2)CSCCS(=O)(=O)CCSCCN1 [compound 12] , kindly confirm whether its Permeability% Average is beneath 2%.
Found: Y

Lookup: Hi there! Is Permeability% Average for O=C1NCCSCc2cccc(n2)CSC[C@H](NC(=O)c2ccc(Cl)s2)C(=O)N[C@@H](CO)C(=O)NCc2ccc1cc2 [compound 25] below 2%, do you know?
Found: Y

###

assayNotes: Metabolic stability in rat liver microsomes (RLMs)
experimentalSetup: rat, microsomes, Half Life, rat liver microsomes, individual replicates R1-R3
Decide using half-life alone. Strictly below 30 min: label 1. Equal to or above 30 min: label 0.

Here are 5 molecules together with their reported answers.
[[record]]
molecule = "O=C1CSCCNC(=O)c2ccc(cc2)CNC(=O)[C@@H](NC(=O)C2CCS(=O)(=O)CC2)CCNC(=O)CCSC1 [compound 6]"
classification = "label 0"

[[record]]
molecule = "O=C1C[C@@H]2CCCN2C(=O)[C@@H](NC(=O)c2cccc(Cl)c2)CSCc2cccc(n2)CSCCNC(=O)[C@H](Cc2c[nH]c3ccccc23)N1 [compound 7]"
classification = "label 1"

[[record]]
molecule = "CN1CCC(=O)NCCSCC(=O)CSC[C@H](NC(=O)c2cccc(C(F)(F)F)c2)C(=O)N2CCC[C@@H](C2)C1=O [compound 8]"
classification = "label 1"

[[record]]
molecule = "CC(C)[C@@H]1NC(=O)CCSCCS(=O)(=O)CCSCCNC(=O)[C@H](CNC(=O)c2ccco2)NC1=O [compound 10]"
classification = "label 0"

[[record]]
molecule = "O=C(Cc1c[nH]c2ccccc12)N[C@H]1CSCCS(=O)(=O)CCSCCNC(=O)C2(CCCC2)NC(=O)[C@@H]2CCCN2C1=O [compound 5]"
classification = "label 0"


Lookup: Report whether reported half-life is lower than 30 min (strictly) for O=C1CC2CCN(CC2)C(=O)[C@@H](NC(=O)c2cc(F)cc(F)c2)CSCc2ccc(cc2)CSCCNC(=O)[C@H](Cc2ccccc2)N1 [peptide 1]
Found: label 1

Lookup: hey, is half-life for COc1ccc(CC(=O)N[C@H]2Cc3ccc(cc3)CNC(=O)c3cccc(c3)CNC(=O)CCSCc3ccc(cc3)CSCCNC2=O)cc1OC [peptide 3] lower than 30 min or not?
Found: label 1

Lookup: In the record for O=C(N[C@H]1CSC/C=C\CSCCNC(=O)C2(CC2)CNC(=O)[C@H](CO)NC1=O)c1cccnc1 [peptide 2] , is half-life less than 30 min?
Found: label 0

Lookup: For NC(=O)NCCC[C@@H]1NC(=O)C2CN(CCN2C(=O)C2CCCN2S(=O)(=O)c2ccc(F)cc2)C(=O)CCSC/C=C/CSCCNC1=O (stereo partly shown) [peptide 4] , is the recorded half-life below the cut-off of 30 min?
Found: label 0

Lookup: Given the entry Cn1nccc1C(=O)N1CCC2(CC1)NC(=O)[C@H](CC1CCCCC1)NC(=O)CCSCc1cccc(n1)CSCCNC2=O [compound 9] , would its reported half-life be below 30 min?
Found: label 1

###

targetEntity: human α-thrombin (Homo sapiens, UniProt P00734)
assayNotes: Sub-library screen for active and permeable cyclic peptides (PAMPA plus thrombin inhibition)
Assay type: biochemical
experimentalSetup: donor sample diluted to theoretical equilibrium (1 μM in assay); crude; slopes normalized to DMSO
readoutLabel: Residual thrombin activity: Equilibrated sample

// known answers, use as guide
[[record]]
compound = "N#Cc1ccc(C[C@@H]2NC(=O)[C@@H](NC(=O)c3ccc(Cl)s3)CSCc3cccc(n3)CSCCNC(=O)C[C@H]3CCCN3C2=O)cc1 [C1-X35-L1]"
result = 92.1

[[record]]
compound = "N#Cc1ccc(C[C@@H]2NC(=O)[C@@H](NC(=O)c3ccc(Cl)s3)CCSC/C=C/CSCCNC(=O)C[C@H]3CCCN3C2=O)cc1 [C2-X35-L4]"
result = 100.3

[[record]]
compound = "Cc1cccc(C[C@@H]2NC(=O)[C@@H](NC(=O)c3ccc(Cl)s3)CCSCc3cccc(c3)CSCCNC(=O)C[C@H]3CCCN3C2=O)c1 [C2-X37-L5]"
result = 95.0

[[record]]
compound = "O=C1C[C@H]2CCCN2C(=O)[C@H](Cc2ccccc2)NC(=O)[C@@H](NC(=O)c2ccc(Cl)s2)CSC/C=C/CSCCN1 [C1-X5-L4]"
result = 31.7


Lookup: Please give the measured Residual thrombin activity: Equilibrated sample for this compound: O=C1CSCCNC(=O)C[C@H]2CCCN2C(=O)[C@@H](Cc2ccccc2)NC(=O)[C@@H](NC(=O)c2ccc(Cl)s2)CSC1 [C1-X31-L7]
Found: 96.3

Lookup: Which measured Residual thrombin activity: Equilibrated sample value corresponds to CN1C(=O)[C@@H](NC(=O)c2ccc(Cl)s2)CCSCCS(=O)(=O)CCSCCNC(=O)C[C@H]2CCCN2C(=O)[C@@H]1Cc1ccccc1 [C2-X32-L2] ?
Found: 100.8

###

assayNotes: Passive artificial membrane permeability (PAMPA);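 further: top well sample relative to theoretical equilibrium sample by TIC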
experimentalSetup: PAMPA; average of R1-R3
Listing: Permeability% Average of selected compounds
Quick reminder: number only, in %, skip the unit.

Known results for compounds:
[[record]]
compound = "O=C1NCCSCc2cccc(n2)CSC[C@H](NC(=O)c2ccc(Cl)s2)C(=O)N[C@@H](CO)C(=O)NCc2cccc1c2"
readoutlabel = "Permeability% Average"
displayunit = "%"
result = 2.5

[[record]]
compound = "CN1CCC(=O)NCCSCCS(=O)(=O)CCSC[C@H](NC(=O)c2ccc(Cl)s2)C(=O)N[C@@H](Cc2ccccc2)C1=O"
readoutlabel = "Permeability% Average"
displayunit = "%"
result = 1.3

[[record]]
compound = "O=C1CC2CCN(CC2)C(=O)[C@H](Cc2ccccc2)NC(=O)[C@@H](NC(=O)c2ccc(Cl)s2)CSCCS(=O)(=O)CCSCCN1"
readoutlabel = "Permeability% Average"
displayunit = "%"
result = 2.0

[[record]]
compound = "O=C(N[C@H]1CSCc2cccc(n2)CSCCNC(=O)[C@H](Cc2ccccn2)NC(=O)C2(CCCC2)NC1=O)c1ccc(Cl)s1"
readoutlabel = "Permeability% Average"
displayunit = "%"
result = 29.5

[[record]]
compound = "O=C(N[C@H]1CSCCS(=O)(=O)CCSCCNC(=O)C2(CC2)CNC(=O)[C@H](Cc2ccccc2)NC1=O)c1ccc(Cl)s1"
readoutlabel = "Permeability% Average"
displayunit = "%"
result = 8.6


Consider the additional compound presented here.
Lookup: Permeability% Average for CC(=O)CC(c1ccccc1)c1c(O)c2ccccc2oc1=O (stereo not drawn) [Warfarin, warfarin, reference compound] ?
Found: 50.0
